- protocol: inhibition of 3D7 malaria parasite growth – strain 3D7 (AID 2306);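 note: 0% = DMSO wells and 100% = chloroquine plus artemisinin control wells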
- measurementSetup: P. falciparum 3D7 erythrocytic growth, LDH absorbance, 72 h; at 2 µM; active compounds read high
quantity: growth inhibition (%)
Express the result in % but write the number alone.

For reference, reported growth inhibition for CC(C)C(=O)n1ncc2c3c(N)nc(N)nc3ccc21 stands at 87

Record COc1ccc(-c2cc(C(=O)N[C@@H](CC3CCCCC3)C(=O)NCCN3CCCC3)ccc2O)cc1 , field growth inhibition: 90

Entry CC1(C)N=C(N)NC(NOCC=Cc2ccccc2)=N1 ; growth inhibition = 98

Form: compound = COc1cc(NC(=O)c2cccs2)c(C(=O)NCc2ccc(C)cc2)cc1OC ; growth inhibition = 93

Measured growth inhibition of NC1=NC(c2ccccc2)N(c2ccc(Cl)c(Cl)c2)C(N)=N1 (stereo unspecified) : 94

The reported growth inhibition of the compound Cc1cc(NN=Cc2ccc(Cl)cc2)c2cccc(C)c2n1 was 103

---

- protocol: HepG2 cytotoxicity, primary screen, cytotoxicity control for P. falciparum antimalarial project, cell-based, ATP luminescence (AID 2303);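 note: 0% = DMSO wells and 100% = digitonin-killed cells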
- measurementSetup: HepG2 viability, 24-48 h, at 10 µM, active compounds read high
Please respond with yes when measured inhibition is strictly beneath 20%, and with no in all other cases.

Lab note: inhibition threshold 20%. Does this molecule come in strictly under it? COc1ccc(OCC(=O)Nc2cc(-c3nc4ccccc4[nH]3)ccc2Cl)cc1
yes

Is inhibition strictly under 20% for the entry CCCC(C)Nc1nc(C)cc(N[C@@H](CC(C)C)C(=O)Nc2ccc(OC)cc2)n1 (some centres undefined) ?
yes

Does Cc1cc(C(=O)Nc2ccc3c(c2)CCN3C2CCN(Cc3ccc(F)cc3Cl)C2)no1 (centres undefined) have inhibition strictly under 20%?
yes

Report whether reported inhibition is lower than 20% (strictly) for CCNc1cc(C(=O)N[C@@H](Cc2ccccc2)[C@H](O)CNCCC(C)(C)C)c(F)c(N2CCCCS2(=O)=O)c1
yes

# TODO verify inhibition < 20% strictly for this molecule: Cc1[nH]c(C)c(-c2ccc(OCCn3cnc(Cl)c3Cl)cc2)c(=O)c1Br
yes

Regarding O=C(O)c1cccc2c(-c3ccncc3)cccc12 , kindly confirm whether its inhibition is beneath 20%.
no

Please state whether inhibition is below 20% for COc1ccc(C=NNc2nc3ccccc3[nH]2)cc1O
yes

Given COc1cc(CNC[C@@H](O)[C@H](Cc2ccccc2)NC(=O)c2cc(OC(C)C)cc(N3CCCCS3(=O)=O)c2)cc(OC)c1 , is recorded inhibition strictly lower than 20%?
yes

Below 20% on inhibition? Entry COc1ccc(CCNCC(O)COc2nccc3c(S(=O)(=O)N4CCCNCC4)cccc23)cc1OC (centres undefined)
no

---

- protocol: inhibition of 3D7 malaria parasite growth – strain 3D7 (AID 2306);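 note: 0% = DMSO wells and 100% = chloroquine plus artemisinin control wells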
- measurementSetup: P. falciparum 3D7 erythrocytic growth, LDH absorbance, 72 h; at 2 µM; active compounds read high
quantity: growth inhibition (%)
Report as a plain number; the unit % is understood.

For CN(C)CCC1CCCc2ccc(NC(=O)Nc3ccc(-c4ccncc4)c4ccccc34)cc21 (stereo not given) the molecule record lists growth inhibition as 89

Just so you know, measured growth inhibition for COc1ccc(-c2cnc(NCc3ccccc3)nc2)cc1CNC1CCN(C)CC1 came out at 96

Per the records, this molecule ( Cc1cc(N[C@@H](CC(C)C)C(=O)Nc2ccccc2)nc(NCc2ccccc2C)n1 ) has growth inhibition equal to 101

Sample Cn1ccnc1CNC(=O)c1ccc(-c2cccc(-c3nc4ccc(C(F)(F)F)cc4[nH]3)c2)cc1 ; growth inhibition observed: 101

get_value(item= Nc1cc(-c2ccc3ccccc3c2)nc2ccccc12 , readout=growth inhibition) returns 99
